Each recorded value in this set is attributed to the supplement of paper PMC10567573.

Reported protein stability index values are given for each entry in this list.
# protocol description: protein stability index of a GFP-peptide fusion (GPS, HEK-293T) (PSI 1-6); higher = more stable;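 note: 24-mer peptide tiles fused after GFP, lentivirally expressed, FACS-sorted into six equal bins by GFP/DsRed ratio, decoded by Illumina sequencing, PSI is the read-weighted mean bin number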
# assay conditions: treatment: MLN4924 1 uM, 8 h; c terminus: a fixed tail appended
Number, no unit, nothing else.

Consider the following illustrative entries.
ordered residues	protein stability index
SDLPTPQAIEPQAIVQQVPAPSRM [SNX8]	5.13
SPFTNLLNGSSQPTTRNYPELNNN [CDC14A]	4.26
KGCLKLCRRCYDWIHRPGCRCKNS [SPRY1]	3.46
GSVAVVEAECEKSSATTYFWYREA [SLC6A17]	2.62
VKNDRDRVGHKSIPMRNLRARPAK [SERPINB5]	4.4

Incoming: Give the measured protein stability index of DNANILLQIDNARLAADDFRTKFE [KRT17] .
Outgoing: 3.71

Incoming: Similarly, ASADRTVIVWDGDTTRQVQRISCF [WDR41] ?
Outgoing: 2.58

Incoming: Entry APSKKAAKDPGKGELPNHPKPAGG [FBF1] please
Outgoing: 5.53

Incoming: Request: KGKYNISSEDYRQLELVILQSEPH [KCNK9]
Outgoing: 2.93

Incoming: Please answer likewise for FSPTPPQQFQPAGTDQVCVLEWGA [FCHSD1]
Outgoing: 2.86

Incoming: Param item: ELFQLQTYSLPPFLKAVLRQERVS [CDS1]
Outgoing: 1.97

Incoming: Similarly, YDPKENKWTRVASMSTRRLGVAVA [KLHL20] ?
Outgoing: 2.38

Incoming: Would you kindly repeat that for LDDIYYFGGQNAHNQIAIYAHQPR [FUT8] ?
Outgoing: 2.92

Incoming: And the next one, DYLIQATNETNVNIPQMADTLFER [SNAP91] ?
Outgoing: 3.75

Incoming: And for MCRVDLRGHMPEWYTKSFGHLCAA [DLC1] ?
Outgoing: 2.1

Incoming: Continue with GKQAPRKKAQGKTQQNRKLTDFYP [KMT5A]
Outgoing: 4.21

Incoming: Note, next up: PGKLFIGGLNTETNEKALEAVFGK [RBMX]
Outgoing: 3.69

Incoming: Param item: KRVYEEFTKVVQPQEEIATKKLRL [INTS4]
Outgoing: 3.86

Incoming: // same read-out, input: RPTYFEMKNEKLLSKASEPKYQLF [RNF180]
Outgoing: 2.78

Incoming: Field entry: RYLFLDGDSHYEIEIVHISTVQIL [ZFYVE21]
Outgoing: 2.61

Incoming: Same lookup for RLDYLNLKGARLTVEQGCQILDSL [FBXO39] , please.
Outgoing: 3.54

Incoming: Subsequent entry: GCLLPDGSRMMAVAALVVNFSQPV [NLN]
Outgoing: 2.75

Incoming: Param item: DIDMTDYDDVRRCCSSADICPKCW [PRIM1]
Outgoing: 4.84

Incoming: Similarly, AGFDAARGDPLGGCQVSPEGYAHL [HDAC6] ?
Outgoing: 3.78

Incoming: Field entry: ETLPELKDDKDFTGTVHRIDNTTV [KCNA1]
Outgoing: 5.17

Incoming: Let us now turn to VFDNAIRAALISRRHLQFWKSHLK [RHOBTB1]
Outgoing: 2.4
